Assay: Cmax in Sprague-Dawley rat at 10 mg/kg, iv measured after 0.08 to 72 hrs by LC/QTOF/MS method
Format: ADME, organism-based
Set-up: route intravenous, dose 10 mg/kg, time upper 72 hrs, time lower 0.08 hrs
Conditions: in vivo
experimental.endpoint: Cmax (ng/mL)

>>> meas_value("COC(=O)C[C@H]1[C@]2(C)C3=C(C)[C@H](c4ccoc4)C[C@H]3O[C@@H]2[C@@H]2OC(=O)[C@]3(C)C=CC(=O)[C@@]1(C)[C@@H]23 [NIMBOLIDE]")
5560

* * *

Tested on: LNCaP C4-2B
Assay: Cytotoxicity against human LNCaP C4-2B cells incubated for 48 hrs by MTT assay
Format: functional, cell-based
experimental.endpoint: IC50 (µM)

>>> meas_value("CC1(C)CCC[C@]2(C)[C@@H]1CC[C@@]13O[C@@H]1C1=C(CO)C(=O)O[C@]14O[C@@H]4[C@@H]23")
12
>>> meas_value("CC1(C)CCC[C@]2(C)[C@@H]1CC[C@@]13O[C@@H]1C1=C(CO)C(=O)OC1=C[C@@H]23")
2.2
>>> meas_value("CC1=C2C(=C[C@H]3[C@]4(C)CCCC(C)(C)[C@H]4CC[C@]34O[C@H]24)OC1=O")
10

* * *

Tested on: SW1990
Experiment: Antiproliferative activity against human SW1990 incubated for 72 hrs by alamar blue assay
Assay type: functional, cell-based
Conditions: SW1990, 72 h
pIC50: −log10 of the molar value.
experimental.endpoint: pIC50

>>> meas_value("CC(C)[C@]12O[C@H]1[C@@H]1O[C@@]13[C@@]1(C)CCC4=C(COC4=O)[C@@H]1C[C@@H]1O[C@@]13C2=O [TRIPTONIDE]")
"> 7.70"

* * *

Test system: DU-145
Assay: Antiproliferative activity against human DU-145 cells incubated for 72 hrs by CCK8 assay
Type: functional, cell-based
Details: DU-145, 72 h
pIC50: −log10 of the molar value.
experimental.endpoint: pIC50

>>> meas_value("CC(C)[C@]12O[C@H]1[C@@H]1O[C@@]13[C@@]1(C)CCC4=C(COC4=O)[C@@H]1C[C@@H]1O[C@@]13C2=O [TRIPTONIDE]")
8.00

* * *

System: EL4
Test: Cytotoxicity against mouse EL4 cells incubated for 48 hrs by sulforhodamine B staining based ELISA
Assay type: functional, cell-based
Conditions: EL4, 48 h
experimental.endpoint: IC50 (nM)

>>> meas_value("C/C=C(/C)C(=O)O[C@H]1C(C)=C2[C@H]([C@@H]1OC(=O)CCCCCCC)[C@@](C)(OC(C)=O)C[C@H](OC(=O)CCC)[C@@]1(O)[C@H]2OC(=O)[C@@]1(C)O")
100

* * *

Measured IC50, listed per entry for reference.
Tested on: L1210
Assay: Cytotoxicity against mouse L1210 cells
Type: functional, cell-based
experimental.endpoint: IC50

>>> meas_value("C=C1[C@@H](O)[C@@]2(O)OC[C@@]34[C@H]1[C@@H](OC(=O)/C=C(\\C)CCCCC)C(=O)O[C@@H]3C[C@H]1C(C)=CC(=O)[C@@H](O)[C@]1(C)[C@@H]24")
"90 nM"
>>> meas_value("C=C1[C@@H](O)[C@@]2(O)OC[C@@]34[C@H]1[C@@H](OC(=O)/C=C/CCCCCCCC)C(=O)O[C@@H]3C[C@H]1C(C)=CC(=O)[C@@H](O)[C@]1(C)[C@@H]24")
"90 nM"

* * *

System: HCT-116
Assay: Cytotoxicity against human HCT116 cells incubated for 72 hrs by ATPlite assay
Type: functional, cell-based
Details: HCT-116, 72 h
experimental.endpoint: IC50 (nM)

>>> meas_value("CC(O)(CO)[C@H]1C[C@H](O)[C@@H]([C@@H]2CC=C3[C@]4(C)[C@H](O)C[C@@H]5[C@](C)(CC=C6C[C@@H](Cc7ccccc7)OC[C@@]65C)[C@H]4CC[C@]32C)[C@@H](O)O1 (stereo partly specified)")
4200
>>> meas_value("CC(=O)O[C@@]1(C)COC2(C1)OC(=O)[C@H]([C@@H]1CC[C@]34C[C@]13C=C[C@@H]1[C@@]3(C)CC=C5C[C@@H](Cc6ccccc6)OC[C@]5(C)[C@@H]3CC(=O)[C@]14C)[C@H]2O (stereo partly specified)")
58
>>> meas_value("C/C(C=O)=C\\[C@H]1C[C@@H]([C@@H]2CC[C@]34C[C@]23C=C[C@@H]2[C@@]3(C)CC=C5C[C@@H](c6ccccc6)OC[C@]5(C)[C@@H]3C[C@@H](O)[C@]24C)C(=O)O1")
92
>>> meas_value("C[C@]1(O)COC2(C[C@@H]([C@@H]3CC[C@]45C[C@]34C=C[C@@H]3[C@@]4(C)CC=C6C[C@@H](Cc7ccccc7)OC[C@]6(C)[C@@H]4C[C@@H](O)[C@]35C)C(=O)O2)C1 (stereo partly specified)")
450
>>> meas_value("C/C(=C\\[C@@H]1OC(=O)[C@H]([C@@H]2CC[C@]34C[C@]23C=C[C@@H]2[C@@]3(C)CC=C5C[C@@H](c6ccccc6)OC[C@]5(C)[C@@H]3C[C@@H](O)[C@]24C)[C@H]1O)CO")
81
>>> meas_value("CC(=O)O[C@@]1(C)COC2(C1)OC(=O)[C@H]([C@@H]1CC[C@]34C[C@]13C=C[C@@H]1[C@@]3(C)CC=C5C[C@@H](Cc6ccccc6)OC[C@]5(C)[C@@H]3[C@@H](O)C(=O)[C@]14C)[C@H]2O (stereo partly specified)")
9.9

* * *

Test system: Bel-7402
Test: Cytotoxicity against human Bel-7402 cells incubated for 24 hrs by MTS method
Format: functional, cell-based
Settings: Bel-7402, 24 h
pIC50: −log10 of the molar value.
experimental.endpoint: pIC50

>>> meas_value("CO[C@@]12OC(=O)C(CO)=C1[C@H]1O[C@]13CC[C@@H]1C(C)(C)CCC[C@@]1(C)[C@@H]3[C@H]2O")
"< 4.30"

* * *

Measured pIC50, listed per entry for reference.
Assay: Antiproliferative activity against human U87-MG cells incubated for 72 hrs by Sulforhodamine B assay
Format: functional, cell-based
Conditions: U-87 MG
pIC50: −log10 of the molar value.
experimental.endpoint: pIC50

>>> meas_value("C[C@H](CO)[C@H]1OC(=O)C=C2[C@@]13O[C@@H]3[C@H]1OC(=O)[C@@]3(C)C[C@@H](O)C[C@@]2(C)[C@@H]13")
5.85
>>> meas_value("C[C@H](CO)[C@H]1OC(=O)C=C2[C@@]13O[C@@H]3[C@H]1OC(=O)[C@@]3(C)[C@@H](O)CC[C@@]2(C)[C@@H]13")
5.40
>>> meas_value("CC(C)[C@H]1OC(=O)C=C2[C@@]13O[C@@H]3[C@H]1OC(=O)[C@@]3(C)C[C@@H](O)C[C@@]2(C)[C@@H]13")
6.37

* * *

Experiment: Cytotoxicity against human MDA-Panc-28 cells incubated for 24 hrs by MTS method
Format: functional, cell-based
Conditions: MDA-Panc-28, 24 h
pIC50: −log10 of the molar value.
experimental.endpoint: pIC50

>>> meas_value("CO[C@@]12OC(=O)C(CO)=C1[C@H]1O[C@]13CC[C@@H]1C(C)(C)CCC[C@@]1(C)[C@@H]3[C@H]2O")
"< 4.30"

* * *

Assay: Inhibition of [3H]PAF-acether binding to PAFR in rabbit platelet plasma membranes incubated for 1 hr
Type: cell membranes, Oryctolagus cuniculus, Cell membrane
pIC50: −log10 of the molar value.
Measured pIC50, listed per entry for reference.
experimental.endpoint: pIC50

>>> meas_value("C[C@@H]1C(=O)O[C@H]2[C@H](O)[C@@]34[C@H]5C[C@@H](C(C)(C)C)[C@]36[C@@H](OC(=O)[C@@H]6O)O[C@@]4(C(=O)O5)[C@@]12O [GINKOLIDE B]")
6.60
>>> meas_value("C[C@@H]1C(=O)O[C@H]2C[C@@]34[C@H]5C[C@@H](C(C)(C)C)[C@]36[C@@H](OC(=O)[C@@H]6O)O[C@@]4(C(=O)O5)[C@]21O [GINKGOLIDE A]")
6.03
>>> meas_value("C[C@@H]1C(=O)O[C@H]2[C@H](O)[C@]34[C@@H]5OC(=O)[C@]3(O[C@@H]3OC(=O)[C@H](O)[C@@]34[C@H](C(C)(C)C)[C@H]5O)[C@@]12O")
4.77

* * *

System: MCF7
Experiment: Cytotoxicity against human MCF-7 cells incubated for 72 hrs by MTT assay
Type: functional, cell-based
Conditions: MCF7, 72 h
experimental.endpoint: IC50

>>> meas_value("COC(=O)[C@@]12OC[C@]34[C@H]([C@@H](O)[C@@H]1O)[C@@]1(C)C=C(O[C@@H]5O[C@H](CO)[C@@H](O)[C@H](O)[C@H]5O)C(=O)[C@@H](C)[C@@H]1C[C@H]3OC(=O)[C@H](OC(=O)CC(C)C)[C@@H]24")
"> 50000 nM"
>>> meas_value("COC(=O)[C@@]12OC[C@]34[C@H]([C@@H](O)[C@@H]1O)[C@@]1(C)C=C(O[C@@H]5O[C@H](CO)[C@@H](O)[C@H](O)[C@H]5O)C(=O)[C@@H](C)[C@@H]1C[C@H]3OC(=O)[C@H](OC(=O)C=C(C)C)[C@@H]24 [BRUCEOSIDE A]")
"> 50000 nM"
>>> meas_value("COC(=O)[C@@]12OC[C@]34[C@H]([C@@H](O)[C@@H]1O)[C@@]1(C)CC(=O)C(O)=C(C)[C@@H]1C[C@H]3OC(=O)[C@H](OC(=O)/C=C(\\C)C(C)(C)OC(C)=O)[C@@H]24")
"63 nM"
>>> meas_value("COC(=O)[C@@]12OC[C@]34[C@H]([C@@H](O)[C@@H]1O)[C@@]1(C)CC(=O)C(O)=C(C)[C@@H]1C[C@H]3OC(=O)[C@H](OC(=O)CC(C)C)[C@@H]24 [BRUCEINE A]")
"180 nM"
>>> meas_value("CC1=CC(=O)[C@@H](O)[C@]2(C)[C@H]3[C@@H](O)[C@H](O)[C@@]4(C)OC[C@@]35[C@@H](C[C@@H]12)OC(=O)[C@H](O)[C@]54O")
"19000 nM"
>>> meas_value("COC(=O)[C@@]12OC[C@]34[C@H]([C@@H](O)[C@@H]1O)[C@@]1(C)CC(=O)C(O)=C(C)[C@@H]1C[C@H]3OC(=O)[C@H](OC(=O)C=C(C)C)[C@@H]24")
"83 nM"

The reported measurements were obtained from ChEMBL document CHEMBL4706632.
